Molecular target: SARM1 (50-724) (Homo sapiens, UniProt Q6SZW1)
Sequence (Q6SZW1 50-724): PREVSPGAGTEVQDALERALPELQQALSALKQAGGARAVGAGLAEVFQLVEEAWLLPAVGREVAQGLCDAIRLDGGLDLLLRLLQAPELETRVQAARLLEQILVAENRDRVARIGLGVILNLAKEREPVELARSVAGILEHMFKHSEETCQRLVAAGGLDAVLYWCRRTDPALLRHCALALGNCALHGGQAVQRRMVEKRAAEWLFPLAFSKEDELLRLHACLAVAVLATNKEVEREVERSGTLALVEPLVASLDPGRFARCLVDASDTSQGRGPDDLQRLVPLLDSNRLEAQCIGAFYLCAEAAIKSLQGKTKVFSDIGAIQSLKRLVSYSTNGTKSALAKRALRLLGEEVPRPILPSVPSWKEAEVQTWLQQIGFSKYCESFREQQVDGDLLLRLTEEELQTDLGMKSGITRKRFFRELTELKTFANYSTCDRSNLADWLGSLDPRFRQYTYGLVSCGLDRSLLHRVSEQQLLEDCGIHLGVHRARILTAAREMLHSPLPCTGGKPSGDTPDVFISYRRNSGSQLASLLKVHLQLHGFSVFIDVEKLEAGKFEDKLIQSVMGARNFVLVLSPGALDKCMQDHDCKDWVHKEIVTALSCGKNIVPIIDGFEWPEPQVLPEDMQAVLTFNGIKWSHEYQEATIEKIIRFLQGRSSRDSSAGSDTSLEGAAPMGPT
Assay: biochemical
Reported IC50 values for a set of compounds

Some solved entries appear below for comparison.
O=c1[nH]ccc2ccc(NS(=O)(=O)c3c(F)ccc(Cl)c3Cl)cc12 [Compound 70]	< 100 nM
CC(Nc1ccc2nc[nH]c(=O)c2n1)c1c(F)ccc(Cl)c1Cl (single isomer, unassigned) [Compound 388]	> 1000 nM
Cc1c(Cl)cccc1S(=O)(=O)Nc1ccc2c(c1)C(=O)NCCC2 [Compound 39]	< 100 nM
Cc1nc2cc(NS(=O)(=O)c3cccc(Cl)c3Cl)ccc2s1 [Compound 29]	100 to 500 nM
Cc1n[nH]c(=O)c2nc(NC(C)c3nn(C)c(Cl)c3Cl)ccc12 (racemic) [Compound 311]	< 100 nM
Cc1snc(C(C)Nc2ccc3nc[nH]c(=O)c3c2)c1Cl (racemic) [Compound 260]	100 to 500 nM

Memo: Cc1n[nH]c(=O)c2cc(NC(C)c3nn(C)c(Cl)c3Cl)cc(F)c12 (racemic) [Compound 316] , reported IC50: < 100 nM

Form field IC50, entry CC(Nc1ccc2c(c1)NC(=O)C2(C)C)c1nccc(Cl)c1Cl (racemic) [Example 210] : < 100 nM
